Please respond with reported IC50 for every item in the list.
- TEST_SUMMARY: Binding affinity against sigma receptor from guinea pig brain (minus cerebellum) homogenates, using the novel [3H]-(+/-)-4 as radioligand
Respond numerically; units are nM and should not be typed.

### Prompt In one line, give reported IC50 of the entry "CN(C)[C@H]1CCc2ccccc2[C@H]1c1ccccc1" .
### Response 2760

### Prompt In one line, give reported IC50 of the entry C=CCNC1Cc2ccccc2C(c2ccccc2)C1 (centres undefined) .
### Response 117

### Prompt In one line, give reported IC50 of the entry CCN(CC)C1Cc2ccccc2C(c2ccccc2)C1 (trans isomer) .
### Response 4.5

### Prompt In one line, give reported IC50 of the entry C=CCN(CC=C)C1Cc2ccccc2C(c2ccccc2)C1 (centres undefined) .
### Response 27

* * *

- TEST_SUMMARY: Binding affinity against sigma receptor from guinea pig brain (minus cerebellum) homogenates, using [3H]ditolylguanidine (DTG) as radioligand.
Please respond with reported pIC50 for every item in the list.
Value format note: pIC50 is -log10 of concentration (mol/L); just state the number.

### Prompt In one line, give reported pIC50 of the entry C=CCN(C)C1Cc2ccccc2C(c2ccccc2)C1 (stereo unspecified) .
### Response 5.81

### Prompt In one line, give reported pIC50 of the entry C=CCN(CC=C)C1Cc2ccccc2C(c2ccccc2)C1 (stereo unspecified) .
### Response 6.27

### Prompt In one line, give reported pIC50 of the entry "CN(C)[C@H]1CCc2ccccc2[C@H]1c1ccccc1" .
### Response 5.48

### Prompt In one line, give reported pIC50 of the entry CCN(CC)C1Cc2ccccc2C(c2ccccc2)C1 (trans isomer) .
### Response 6.68

### Prompt In one line, give reported pIC50 of the entry CN(C)C1Cc2ccccc2C(c2ccccc2)C1 (stereo unspecified) .
### Response 6.02
